test: viability profiling in MM1S myeloma cells – cell-based, resazurin fluorescence, basal, 24 h, PK04 Diversity Set, profiling panel (AID 1174); conditions: higher = more signal, called active from +8 up or from −8 down;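 also: MM1S multiple myeloma cell line; test concentration not given here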
Recorded z-score by entry

Compound | z-score
COCCOC(=O)N1C(=O)[C@@]2(c3cc(C#Cc4ccc(OC)cc4)ccc31)[C@H](c1ccc(OCCO)cc1)N1[C@H](c3ccccc3)[C@H](c3ccccc3)OC(=O)[C@H]1[C@@H]2C(N)=O | -1.85
C=C[C@H](C)[C@H](OC(=O)Nc1ccc(SC)cc1)c1ccc(O)c2ccccc12 | -3.69
CC(C)C(CO)N1C(=O)[C@@H]2[C@H]3C(=O)OCC=C[C@H]3OC23C=CCN(CCN2CCOCC2)C(=O)[C@@H]13 (some centres undefined) | -0.505
COc1cc2c(cc1OC)CN(C(=O)[C@@H]1[C@H]3C(=O)O[C@H](c4ccccc4)[C@H](c4ccccc4)N3[C@H](c3ccc(OCCO)cc3)[C@@]13C(=O)Nc1ccc(C#CCCO)cc13)CC2 | 0.113
[N-]=[N+]=NCc1ccccc1C[C@]1(C(=O)NCCN2CCOCC2)COC(c2ccc(OCCCO)cc2)=N1 | -1.28
COC(=O)[C@H]1N=C(c2ccc(OCCCO)cc2)O[C@H]1c1ccccc1CN=[N+]=[N-] | 0.236
CCCCCCC#C[Si](O[C@H](c1ccccc1)c1cn(Cc2cccc(Cl)c2)nn1)(C(C)C)C(C)C | 1.31
C=CCOc1ccc([C@@H]2CC=C(C(=O)OCC)[C@H](c3cccc(Br)c3)N2S(=O)(=O)c2ccc(C)cc2)cc1 | 0.262
CC[C@@H]1[C@@H]2C3C(=O)N(CC)C(=O)C3CC(=O)[C@@H]2[C@H](c2ccc(C)cc2)N1S(=O)(=O)c1ccc(C)cc1 (some centres undefined) | -1.27
C=CCOC(=O)[C@@H]1[C@H]2C(=O)O[C@H](c3ccccc3)[C@H](c3ccccc3)N2[C@H](c2ccc(OCCOC(=O)[C@@H]3C[C@@H]4C(=O)N5CCC[C@H]5C(=O)N4[C@@H]3c3cccc(OCCO)c3)cc2)[C@@]12C(=O)Nc1ccc(I)cc12 | 0.356
C=CCN1C(=O)[C@@]2(O[C@@H](CCO)[C@H]([Si](C)(C)c3ccc(OC)cc3)[C@H]2C)c2cc(NC(=O)[C@H](C)O)ccc21 | -2.15
COCCCNC(=O)[C@@]1(Cc2ccccc2CN=[N+]=[N-])N=C(c2ccc(OCCCO)cc2)O[C@H]1c1ccccc1N=[N+]=[N-] | -1.18
OCCCC1=CC(c2cccs2)N(Cc2cccc(OC(F)(F)F)c2)CC1 (centres undefined) | -0.656
COC(=O)[C@@]1(Cc2ccc(OC)cc2)[C@H]2c3cc(C(=O)N4CCCC4)n(CCF)c3C[C@H]2CN1C(=O)c1ccccc1 | -2.21
COCCCNC(=O)[C@@]1(Cc2ccccc2)COC(c2ccc(OCCCO)cc2)=N1 | 0.141
Cc1ccc(F)cc1S(=O)(=O)N[C@@H]1CCN(C(=O)c2ccc(OC(C)C)cc2)C1 | 0.554
CC1(C)[C@@H]2CC(C(O)C3C=CC4C(=O)N(c5ccccc5)C(=O)C4N3Nc3ccccc3F)=C[C@@H]1C2 (some centres undefined) | 0.941
COCCOC(=O)N1C(=O)[C@@]2(c3cc(C#CCNC(N)=O)ccc31)[C@H](c1ccc(OCCO)cc1)N1[C@H](c3ccccc3)[C@H](c3ccccc3)OC(=O)[C@H]1[C@@H]2C(=O)N1CCN(c2ncccn2)CC1 | -0.0528
O=C1N(Cc2ccccc2)c2ccccc2[C@H]2OC(c3ccc(OCCCO)cc3)=N[C@@]12CCS(=O)(=O)c1ccccc1 | -0.56
